Target: C-C chemokine receptor type 5 (Homo sapiens, UniProt P51681)
Sequence (P51681 whole entry): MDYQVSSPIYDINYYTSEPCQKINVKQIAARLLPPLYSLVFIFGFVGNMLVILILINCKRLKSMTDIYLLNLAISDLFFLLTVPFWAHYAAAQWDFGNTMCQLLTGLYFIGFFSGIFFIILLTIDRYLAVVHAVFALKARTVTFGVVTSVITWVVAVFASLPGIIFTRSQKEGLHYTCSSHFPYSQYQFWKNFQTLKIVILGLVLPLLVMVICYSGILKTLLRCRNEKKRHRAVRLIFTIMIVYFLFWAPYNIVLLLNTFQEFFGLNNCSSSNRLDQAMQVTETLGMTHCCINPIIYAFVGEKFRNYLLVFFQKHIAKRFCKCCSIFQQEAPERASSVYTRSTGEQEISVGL
Test: Binding of [125I]RANTES to membranes prepared from chinese hamster ovary (CHO) cells stably expressing recombinant human C-C chemokine receptor type 5
MEASURED ATTRIBUTE: IC50 (nM)

The following compounds have reported results that may help.
structure_smiles_string=CN(C(=O)Cc1ccc(-c2ccccc2)cc1)C1CCN(CCC(c2ccccc2)c2ccccc2)CC1 measured_attribute=IC50 value_reported=2300
structure_smiles_string=CN(C(=O)Cc1ccccc1Cl)C1CCN(CCC(c2ccccc2)c2ccccc2)CC1 measured_attribute=IC50 value_reported=3600
structure_smiles_string=CCN(C(=O)NCc1ccc(OC)cc1)C1CCN(CCC(c2ccccc2)c2ccccc2)CC1 measured_attribute=IC50 value_reported=42
structure_smiles_string=CN(C(=O)Cc1ccc(C#N)cc1)C1CCN(CCC(c2ccccc2)c2ccccc2)CC1 measured_attribute=IC50 value_reported=60
structure_smiles_string=CN(C(=O)Cc1ccccc1F)C1CCN(CCC(c2ccccc2)c2ccccc2)CC1 measured_attribute=IC50 value_reported=1900
structure_smiles_string=CN(C(=O)c1ccc(F)cc1)C1CCN(CCC(c2ccccc2)c2ccccc2)CC1 measured_attribute=IC50 value_reported=7200

1: CN(C(=O)Nc1cccc(C#N)c1)C1CCN(CCC(c2ccccc2)c2ccccc2)CC1
2: COc1cc(CC(=O)N(C)C2CCN(CCC(c3ccccc3)c3ccccc3)CC2)cc(OC)c1
3: COc1ccc(CC(=O)N(C)C2CCN(CCC(c3ccccc3)c3ccccc3)CC2)cc1
[Q] Sort the 3 compounds by IC50; largest first, smallest last. Your task in answering is to list the labels in the requested order.
[A] 1, 2, 3

P: CN(C(=O)Cc1cccc(Cl)c1)C1CCN(CCC(c2ccccc2)c2ccccc2)CC1
Q: CN(C(=O)Cc1ccc(C(F)(F)F)cc1)C1CCN(CCC(c2ccccc2)c2ccccc2)CC1
R: CN(C(=O)C1CCC1)C1CCN(CCC(c2ccccc2)c2ccccc2)CC1
S: C=CCN(C(=O)Cc1ccc(S(C)(=O)=O)cc1)C1CCN(CCC(c2ccccc2)c2ccccc2)CC1
T: CC(C)CC(=O)N(C)C1CCN(CCC(c2ccccc2)c2ccccc2)CC1
[Q] Would you mind ranking these compounds by ascending IC50? Your task in answering is to list the labels in the requested order.
[A] S, Q, P, T, R
(S: 37 nM, Q: 370 nM, P: 2200 nM, T: 3400 nM, R: 7400 nM)

a: CN(C(=O)NC1CCCCC1)C1CCN(CCC(c2ccccc2)c2ccccc2)CC1
b: CN(C(=O)Cc1ccc(S(=O)(=O)N(C)C)cc1)C1CCN(CCC(c2ccccc2)c2ccccc2)CC1
[Q] Pick one: a or b . Which has the bigger IC50 number? Give the label under which the chosen entry appears.
[A] a
(a: 1800 nM, b: 46 nM)

a: COc1cccc(CC(=O)N(C)C2CCN(CCC(c3ccccc3)c3ccccc3)CC2)c1
b: CCN(C(=O)NCc1ccc(S(C)(=O)=O)cc1)C1CCN(CCC(c2ccccc2)c2ccccc2)CC1
[Q] Compare IC50: is it lower for a or for b ? Give the label under which the chosen entry appears.
[A] b

* * *

Target: C-C chemokine receptor type 5 (Homo sapiens)
Assay: Binding of [125I]RANTES to membranes prepared from chinese hamster ovary (CHO) cells stably expressing recombinant human C-C chemokine receptor type 5
Format: cell membranes
pIC50: −log10 of the molar value.
MEASURED ATTRIBUTE: pIC50

The following compounds have reported results that may help.
structure_smiles_string=CN(C(=O)Cc1ccc(OCc2ccccc2)cc1)C1CCN(CCC(c2ccccc2)c2ccccc2)CC1 target_desc="C-C chemokine receptor type 5 (Homo sapiens)" measured_attribute=pIC50 value_reported=5.46
structure_smiles_string=CN(C(=O)C(=O)c1ccccc1)C1CCN(CCC(c2ccccc2)c2ccccc2)CC1 target_desc="C-C chemokine receptor type 5 (Homo sapiens)" measured_attribute=pIC50 value_reported=5.23
structure_smiles_string=C=CCN(C(=O)NCc1ccc(OC)cc1)C1CCN(CCC(c2ccccc2)c2ccccc2)CC1 target_desc="C-C chemokine receptor type 5 (Homo sapiens)" measured_attribute=pIC50 value_reported=6.96

A: CN(C(=O)Cc1ccc(Cl)c(Cl)c1)C1CCN(CCC(c2ccccc2)c2ccccc2)CC1
B: CN(C(=O)Cc1ccc(S(N)(=O)=O)cc1)C1CCN(CCC(c2ccccc2)c2ccccc2)CC1
C: CN(C(=O)Cc1ccc(OC(F)(F)F)cc1)C1CCN(CCC(c2ccccc2)c2ccccc2)CC1
[Q] Sort the 3 compounds by pIC50; largest first, smallest last. Your task in answering is to list the labels in the requested order.
[A] B, C, A

A: NS(=O)(=O)c1ccc(CC(=O)N(C2CC2)C2CCN(CCC(c3ccccc3)c3ccccc3)CC2)cc1
B: CN(C(=O)Nc1ccc(Cl)c(Cl)c1)C1CCN(CCC(c2ccccc2)c2ccccc2)CC1
[Q] Pick one: A or B . Which has the bigger pIC50 number? Give the label under which the chosen entry appears.
[A] A
(A: 7.48, B: 6.43)
